These records show pKi for D(2) dopamine receptor (Rattus norvegicus, UniProt P61169).
Entry type: numeric. Quantity: pKi, the -log10 of concentration in molar units.

Field request: pKi | item: O=C(c1ccc(F)cc1)C1CCN(CCn2c(=O)[nH]c3ccccc3c2=O)CC1
6.40

Field request: pKi | item: CC[C@@H](CO)NC(=O)[C@@H]1C=C2c3cccc4c3c(cn4C)C[C@H]2N(C)C1
6.94

Field request: pKi | item: OCCC1CCN(CC/C=C2\c3ccc(F)cc3Sc3ccc(C(F)(F)F)cc32)CC1 [trans piflutixol-(E)]
7.14

----------
metric: pKi
Entry type: numeric. Quantity: pKi, the -log10 of concentration in molar units.

Item CC[C@@H](CO)NC(=O)[C@@H]1C=C2c3cccc4c3c(cn4C)C[C@H]2N(C)C1 with D(1A) dopamine receptor (Rattus norvegicus, UniProt P18901) - pKi?
6.66

Item OCCN1CCN(CCCN2c3ccccc3Sc3ccc(C(F)(F)F)cc32)CC1 with D(1A) dopamine receptor (Rattus norvegicus, UniProt P18901) - pKi?
7.95

Item OCCC1CCN(CCC=C2c3ccc(F)cc3Sc3ccc(C(F)(F)F)cc32)CC1 with D(1A) dopamine receptor (Rattus norvegicus, UniProt P18901) - pKi?
8.54

Item OCCC1CCN(CC/C=C2\c3ccc(F)cc3Sc3ccc(C(F)(F)F)cc32)CC1 [trans piflutixol-(E)] with D(1A) dopamine receptor (Rattus norvegicus, UniProt P18901) - pKi?
7.02

----------
Please provide measured pKi for the entries that follow.
pKi: −log10 of the molar value.

Item CN1C2CC(OC(=O)C(CO)c3ccccc3)CC1C1OC12 (stereo not drawn) with D(1A) dopamine receptor (Rattus norvegicus, UniProt P18901) - pKi?
< 5.00

Item NCC(O)c1ccc(O)c(O)c1 (stereo not drawn) [Noradrenaline,(+)] with D(1A) dopamine receptor (Rattus norvegicus, UniProt P18901) - pKi?
< 5.00

Item NCCc1c[nH]cn1 [[3H]histamine] with D(1A) dopamine receptor (Rattus norvegicus, UniProt P18901) - pKi?
< 5.00
